Kd overview
Molecular target: T1, hECD: full-length extracellular region of human MuSK (E22 to T495) with C-terminal Avi- and His6-tags (human, UniProt O15146 22-495, biotinylated in vitro using the BirA enzyme)
T1 construct: also called human ECD; not shown: Avi- and His6-tags
T1 sequence: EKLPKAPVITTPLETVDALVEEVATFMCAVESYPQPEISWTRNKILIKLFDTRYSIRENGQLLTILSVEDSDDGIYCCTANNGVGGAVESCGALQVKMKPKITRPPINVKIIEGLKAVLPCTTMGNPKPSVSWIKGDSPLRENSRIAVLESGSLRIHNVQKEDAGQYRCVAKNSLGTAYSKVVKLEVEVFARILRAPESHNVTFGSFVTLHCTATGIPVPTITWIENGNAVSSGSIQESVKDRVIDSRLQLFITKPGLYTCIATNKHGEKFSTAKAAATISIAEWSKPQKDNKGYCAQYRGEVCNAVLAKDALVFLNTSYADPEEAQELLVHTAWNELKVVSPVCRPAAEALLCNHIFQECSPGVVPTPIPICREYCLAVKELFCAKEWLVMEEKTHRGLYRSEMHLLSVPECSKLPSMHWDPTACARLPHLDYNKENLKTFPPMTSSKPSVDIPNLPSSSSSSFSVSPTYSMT
Test: bead-binding assay, IgG format: biotinylated antigen on streptavidin beads, flow cytometry, 1:1 fit; average ± s.d., n=3
Value expressed in nM; do not type the unit.

Requested read-out: Kd. Entry: mIgG2a-X3 (antibody, V domains shown, mouse IgG2a format; also called X3 in mouse IgG2a format) VH: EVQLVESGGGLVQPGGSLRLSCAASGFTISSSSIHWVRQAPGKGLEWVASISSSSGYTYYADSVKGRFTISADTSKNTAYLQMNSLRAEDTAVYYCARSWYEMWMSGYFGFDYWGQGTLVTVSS VL: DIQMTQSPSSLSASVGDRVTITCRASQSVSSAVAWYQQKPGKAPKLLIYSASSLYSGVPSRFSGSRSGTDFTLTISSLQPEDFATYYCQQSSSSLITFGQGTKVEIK
0.113

Same read-out for hIgG1-X3 (antibody, V domains shown, human IgG1 Fc containing LALA mutations; also called X3 in human IgG1 format) VH: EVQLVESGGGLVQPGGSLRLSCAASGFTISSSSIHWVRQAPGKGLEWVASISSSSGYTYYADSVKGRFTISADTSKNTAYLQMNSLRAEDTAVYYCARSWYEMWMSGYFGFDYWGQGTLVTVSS VL: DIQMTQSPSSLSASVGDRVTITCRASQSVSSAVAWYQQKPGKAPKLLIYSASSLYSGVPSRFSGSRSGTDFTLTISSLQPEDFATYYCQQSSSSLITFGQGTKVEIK ?
0.074
